Numbers sourced from the Immune Epitope Database (IEDB).

Molecular target: HLA-A*11:01
Assay: IEDB peptide-MHC binding, purified MHC/direct/fluorescence; filed as Kd, often an IC50 or EC50 that approximates it; bounds were set here for any values at or beyond the usual limits of such assays
Conditions: source organism: Vibrio parahaemolyticus
reported.endpoint: Kd (nM)
Answers are plain numbers, in nM.

Incoming: Item `MSSAMSMMH` has what recorded Kd?
Outgoing: 154

----------
Please respond with reported pKd for every item in the list.
Molecular target: HLA-A*24:02
Experiment: IEDB peptide-MHC binding, purified MHC/competitive/radioactivity; filed as Kd, often an IC50 or EC50 that approximates it; bounds were set here for any values at or beyond the usual limits of such assays
Conditions: source organism: Mammarenavirus brazilense
Give bare numbers, as −log10 of the molar value.

LNYVIHKLF    4.98

Note: attention shifts to another entry.
Incoming: What pKd appears in the records for this sequence with HLA-A*24:02? `VDICFWSTL`
Outgoing: 5.25

----------
Kindly supply the reported Kd values for the records listed here.
Molecular target: HLA-A*33:01
Test: IEDB peptide-MHC binding, purified MHC/competitive/radioactivity; filed as Kd, often an IC50 or EC50 that approximates it; bounds were set here for any values at or beyond the usual limits of such assays
Details: source organism: Dengue virus 2 Jamaica/1409/1983
Answers are plain numbers, in nM.

NMSFRDLGR    8.95

Consider now this further sequence.
Incoming: Requested read-out: Kd. Entry: `YMPSMKRFRR`
Outgoing: 10.7

----------
Target: HLA-C*03:03
Assay: IEDB peptide-MHC binding, purified MHC/direct/fluorescence; filed as Kd, often an IC50 or EC50 that approximates it; bounds were set here for any values at or beyond the usual limits of such assays
Settings: source organism: human gammaherpesvirus 4
reported.endpoint: Kd

Incoming: HLA-C*03:03 / Kd / `YSQGAFTPL` : value?
Outgoing: ≤ 1 nM

----------
Target: HLA-A*03:01
Test: IEDB peptide-MHC binding, purified MHC/competitive/radioactivity; filed as Kd, often an IC50 or EC50 that approximates it; bounds were set here for any values at or beyond the usual limits of such assays
Conditions: source organism: Dengue virus 4 Philippines/H241/1956
reported.endpoint: pKd
Give bare numbers, as −log10 of the molar value.

Solved entries (count: 2):
KILAKAIFK    7.92
HLKCKVRMEK    7.26

Next up:
Incoming: # get_value(readout='pKd', item= `VTFKVPHAK` )
Outgoing: 7.99

----------
Biological target: HLA-B*58:01
Assay: IEDB peptide-MHC binding, purified MHC/direct/fluorescence; filed as Kd, often an IC50 or EC50 that approximates it; bounds were set here for any values at or beyond the usual limits of such assays
Conditions: source organism: Influenza A virus (A/duck/Mongolia/47/2001(H7N1))
reported.endpoint: Kd

Incoming: Please state recorded Kd (tested on HLA-B*58:01) of `THFQRKRRV`
Outgoing: ≥ 20 µM

----------
Molecular target: HLA-B*58:01
Experiment: IEDB peptide-MHC binding, purified MHC/direct/fluorescence; filed as Kd, often an IC50 or EC50 that approximates it; bounds were set here for any values at or beyond the usual limits of such assays
Conditions: source organism: Influenza A virus (A/camel/Mongolia/1982(H1N1))
reported.endpoint: Kd

Incoming: Given `ELDEIGEDV` , state its recorded Kd.
Outgoing: ≥ 20 µM

----------
Target: HLA-A*31:01
Test: IEDB peptide-MHC binding, purified MHC/direct/fluorescence; filed as Kd, often an IC50 or EC50 that approximates it; bounds were set here for any values at or beyond the usual limits of such assays
Conditions: source organism: Brucella melitensis
reported.endpoint: Kd

ALFEDYPGC    ≥ 20 µM

Query sequence follows.
Incoming: Record request: Kd value, item `CTDPPLLSV`
Outgoing: ≥ 20 µM
